Tested on: C33A
TEST SUMMARY: Confirmatory qHTS for gynecologic anti-cancer compounds from libraries of approved drugs and bioactive compounds; further: nearly all actives have a fitted effect of over 55% in size; further: potency means the concentration at half of the fitted maximal effect
ASSAY CONTEXT: gynecologic cancer cell panel viability, ATPlite luminescence, 48 h; series mostly up to 57.6 µM
Records with an inconclusive call do not appear. Activity calls are given as the source filed them. The call rests on the fitted dose curve; in most records, active means well fitted cell-killing curve with a large enough effect; inconclusive means small, poorly fitted or top-dose-only effect, or effect the other way; inactive means no such curve, though single readings can be large or run the other way.

| COMPOUND | ASSAYED SYSTEM | Potency |
| --- | --- | --- |
| C/C=C(/C)C(=O)O[C@H]1C(C)=C2[C@H]([C@@H]1OC(=O)CCCCCCC)[C@@](C)(OC(C)=O)C[C@H](OC(=O)CCC)[C@@]1(O)[C@H]2OC(=O)[C@@]1(C)O | C33A | 21.7 µM (active) |
| CCNC(=O)C[C@@H]1N=C(c2ccc(Cl)cc2)c2cc(OC)ccc2-n2c(C)nnc21 | C33A | inactive |
| CCN1CCN(C(=O)Cc2ccc(Nc3ncc(F)c(Nc4ccc(C(=O)Nc5ccccc5Cl)cc4)n3)cc2)CC1 | C33A | inactive |
| Cc1sc2c(c1C)C(c1ccc(Cl)cc1)=NC(CC(=O)OC(C)(C)C)c1nnc(C)n1-2 (centres undefined) | C33A | inactive |
